Target: T1, human VTCN1 protein (Homo sapiens, UniProt Q7Z7D3)
T1 construct: His
T1 sequence (Q7Z7D3 25-282): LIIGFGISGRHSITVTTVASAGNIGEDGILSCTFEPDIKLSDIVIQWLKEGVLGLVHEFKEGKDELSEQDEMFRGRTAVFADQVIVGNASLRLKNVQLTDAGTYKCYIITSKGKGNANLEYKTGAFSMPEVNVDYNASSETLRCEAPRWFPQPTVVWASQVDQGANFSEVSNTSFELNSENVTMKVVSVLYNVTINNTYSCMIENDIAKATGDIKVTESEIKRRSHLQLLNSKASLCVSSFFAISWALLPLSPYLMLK
Assay: Affinity to recombinant VTCN1-his by OCTET Red (Protein A biosensors)
Type: binding
Conditions: Table 12
ASSAY METRIC: Human k(on)

[[record]]
molecule = "7G7_44C6: fully human VTCN1 antibody; VH SEQ ID NO: 256, VL SEQ ID NO: 260 (antibody, V domains shown) VH: QVQLQESGPGLVKPSETLSLTCTVSGGSISHYYWSWIRQPPGKGLEWIGYIYYSGPTNYNPSLKSRVTISVDTSKNQFSLKLSSVTAADTAVYYCARTYYYGSGSFPDAFDIWGQGTMVTVSS VL: KIVLTQSPATLSLSPGERATLSCRASQSVSSYLAWYQQTPGQAPRLLIYDASNRATGIPARFSVSGSGTDFTLTISSLEPEDFAVYYCQQRSSWPLTFGGGTKLEIK"
numeric_value = "8.42E+05"

